test: Tmax in mouse at 10 mg/kg, po
Assay type: ADME, organism-based
Set-up: dose 10 mg/kg, route oral
setupConditions: in vivo
observedProperty: Tmax (h)

Suppose we examine the compound Cc1ccccc1Nc1nc2cc(F)c(N(C)C(=O)/C=C/CN(C)C)cc2n2cncc12 ; what Tmax value has been reported?
3

Suppose we examine the compound Cc1ccc(F)cc1Nc1nc2cc(Cl)c(N(C)C(=O)/C=C/CN(C)C)cc2n2cncc12 ; what Tmax value has been reported?
3

###

measuredOn: Tyrosine-protein kinase Blk (Homo sapiens)
Sequence (P51451 whole entry): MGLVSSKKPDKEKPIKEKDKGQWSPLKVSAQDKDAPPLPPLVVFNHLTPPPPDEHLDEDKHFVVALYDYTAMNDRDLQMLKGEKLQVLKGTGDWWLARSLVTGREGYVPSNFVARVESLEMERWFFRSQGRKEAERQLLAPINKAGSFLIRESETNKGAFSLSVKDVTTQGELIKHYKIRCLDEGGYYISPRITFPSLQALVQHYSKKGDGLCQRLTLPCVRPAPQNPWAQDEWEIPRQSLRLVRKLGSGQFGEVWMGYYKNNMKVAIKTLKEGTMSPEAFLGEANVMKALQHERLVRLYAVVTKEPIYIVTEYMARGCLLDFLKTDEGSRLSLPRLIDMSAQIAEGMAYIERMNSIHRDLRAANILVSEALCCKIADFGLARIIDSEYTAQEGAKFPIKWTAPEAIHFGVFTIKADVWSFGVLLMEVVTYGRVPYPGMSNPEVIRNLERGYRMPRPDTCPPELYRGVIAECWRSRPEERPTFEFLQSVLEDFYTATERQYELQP
observedProperty: pIC50
Would you please state pIC50, meaning minus log10 of the concentration in mol/L, as a bare number?

Suppose we examine the compound Cc1ccccc1Nc1nc2cc(F)c(N(C)C(=O)/C=C/CN(C)C)cc2n2cncc12 ; what pIC50 value has been reported?
7.80

###

test: Cmax in mouse at 10 mg/kg, po
Assay type: ADME, organism-based
Set-up: dose 10 mg/kg, route oral
setupConditions: in vivo
observedProperty: Cmax (ng/mL)

A. Cc1ccccc1Nc1nc2cc(F)c(N(C)C(=O)/C=C/CN(C)C)cc2n2cncc12
B. Cc1ccc(F)cc1Nc1nc2cc(Cl)c(N(C)C(=O)/C=C/CN(C)C)cc2n2cncc12
Select one: A or B . Criterion: greater recorded Cmax. Answer with the label corresponding to your selection.
B
(B: 454 ng/mL, A: 220 ng/mL)

###

measuredOn: Tyrosine-protein kinase BTK (Homo sapiens)
Sequence (Q06187 whole entry): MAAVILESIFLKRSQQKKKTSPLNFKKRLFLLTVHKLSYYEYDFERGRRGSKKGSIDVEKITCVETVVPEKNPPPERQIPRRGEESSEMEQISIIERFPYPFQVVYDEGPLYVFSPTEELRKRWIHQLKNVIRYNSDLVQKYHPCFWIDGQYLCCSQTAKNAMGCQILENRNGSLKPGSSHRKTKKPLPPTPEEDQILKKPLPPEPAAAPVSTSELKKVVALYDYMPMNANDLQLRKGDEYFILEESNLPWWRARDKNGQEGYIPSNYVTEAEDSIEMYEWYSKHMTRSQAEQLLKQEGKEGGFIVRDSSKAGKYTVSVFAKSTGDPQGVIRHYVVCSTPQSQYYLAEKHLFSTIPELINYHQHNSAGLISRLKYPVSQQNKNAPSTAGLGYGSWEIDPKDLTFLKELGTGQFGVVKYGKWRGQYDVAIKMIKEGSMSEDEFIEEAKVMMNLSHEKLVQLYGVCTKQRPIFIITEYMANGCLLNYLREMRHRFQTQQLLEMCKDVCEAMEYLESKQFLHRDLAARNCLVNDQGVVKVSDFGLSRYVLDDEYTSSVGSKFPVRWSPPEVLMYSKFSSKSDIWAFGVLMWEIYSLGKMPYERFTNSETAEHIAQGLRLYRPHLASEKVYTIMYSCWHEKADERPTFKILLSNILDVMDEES
test: Inhibition of human full-length BTK expressed in Sf9 cells using FAM-Srctide peptide as substrate after 60 mins by TR-FRET Assay
observedProperty: IC50 (nM)

A selection of reference data follows.
Suppose we examine the compound Cc1ccccc1Sc1nc2ccc(N(C)C(=O)/C=C/CN(C)C)cc2n2cncc12 ; what IC50 value has been reported?
283

Suppose we examine the compound COc1cc2nc(Nc3ccccc3C)c3cncn3c2cc1N(CC1CC1)C(=O)/C=C/CN(C)C ; what IC50 value has been reported?
45.3

Suppose we examine the compound C=C(CN1CCOCC1)C(=O)Nc1cc2c(cc1OC)nc(Nc1ccccc1C)c1cncn12 ; what IC50 value has been reported?
2.52

A. COc1cc2nc(Nc3ccccc3C)c3cncn3c2cc1NC(=O)C#CCN1CCOCC1
B. CCN(C(=O)/C=C/CN(C)C)c1cc2c(cc1OC)nc(Nc1ccccc1C)c1cncn12
C. Cc1cc(F)ccc1Nc1nc2ccc(N(C)C(=O)/C=C/CN(C)C)cc2n2cncc12
D. Cc1c(O)cccc1Nc1nc2ccc(N(C)C(=O)/C=C/CN(C)C)cc2n2cncc12
E. CN(C)C/C=C/C(=O)N(C)c1cc2c(cc1Cl)nc(Nc1ccccc1Cl)c1cncn12
Arrange by IC50, high to low. Please, when replying, give the labels in the order that was requested.
D, B, E, C, A
(D: 76.5 nM, B: 19.1 nM, E: 5.03 nM, C: 2.96 nM, A: 0.847 nM)

###

test: Half life in mouse at 10 mg/kg, po
Type: ADME, organism-based
Design: dose 10 mg/kg, route oral
setupConditions: in vivo
observedProperty: half-life (h)

Suppose we examine the molecule Cc1ccc(F)cc1Nc1nc2cc(Cl)c(N(C)C(=O)/C=C/CN(C)C)cc2n2cncc12 ; what half-life value has been reported?
2.7

Suppose we examine the molecule Cc1ccccc1Nc1nc2cc(F)c(N(C)C(=O)/C=C/CN(C)C)cc2n2cncc12 ; what half-life value has been reported?
2
